B1: KRT18 (parent)
chain: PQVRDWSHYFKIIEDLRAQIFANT

Variants of: B1
Experiment: protein stability index of a GFP-peptide fusion (GPS, HEK-293T) (PSI 1-6); higher = more stable;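 also: lentivirally expressed fusions sorted by FACS into six bins by GFP to DsRed ratio, PSI derived from sequencing read proportions per bin multiplied by bin number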
Settings: c terminus: a fixed tail appended
Property name: protein stability index
I only need the number, thanks.

Here's what some known entries look like.
INSERT INTO results (residues, recorded_number) VALUES
  ('PQDRDWSHYFKIIEDLRAQIFANT [V3D]', 2.39),
  ('PQVRDWSHYFKIIEDLRAQIFAIT [N23I]', 1.93),
  ('PQVRDWLHYFKIIEDLRAQIFANT [S7L]', 1.52),
  ('PQVRDWSHYFIIIEDLRAQIFANT [K11I]', 2.25),
  ('PQVRDWSHYFKIAEDLRAQIFANT [I13A]', 2.77),
  ('PQVRDWSHYFKIIEDLRAQIFANN [T24N]', 2.74),
  ('PQVRDWSHYFKNIEDLRAQIFANT [I12N]', 3.55),
  ('PQVRDWSHYFKIIEDLVAQIFANT [R17V]', 1.89);

## Input Would you kindly share the measured protein stability index for PQVRDWSHYFRIIEDLRAQIFANT [K11R] ?
## Output 2.11

## Input What do you get for PQVRDWSHYFKIIEDLRADIFANT [Q19D] ?
## Output 2.49

## Input Same again, this time with PQVRDWSHYFKIYEDLRAQIFANT [I13Y]
## Output 1.72

## Input Next variant: PQVRDWSHYFSIIEDLRAQIFANT [K11S]
## Output 2.75

## Input Also, PQVRDWSHYFKTIEDLRAQIFANT [I12T] please.
## Output 2.78

## Input Then what about the variant WQVRDWSHYFKIIEDLRAQIFANT [P1W] ?
## Output 2.86

## Input Same thing, different variant: PQVRDWSAYFKIIEDLRAQIFANT [H8A]
## Output 2.06

## Input And what about the variant PQVRWWSHYFKIIEDLRAQIFANT [D5W] ?
## Output 1.63

## Input Now give it for PQVRDWSHYFKIIEDRRAQIFANT [L16R] too.
## Output 2.33

## Input Also, PPVRDWSHYFKIIEDLRAQIFANT [Q2P] please.
## Output 3.51

## Input Could you do the same for PQPRDWSHYFKIIEDLRAQIFANT [V3P] , please?
## Output 2.46

## Input Next record, please: PQVRDWSHYFKIIEPLRAQIFANT [D15P]
## Output 1.4

## Input Now the same for PQVRDWHHYFKIIEDLRAQIFANT [S7H]
## Output 2.36

## Input Same question for PQVRDWSHYFKQIEDLRAQIFANT [I12Q] please.
## Output 2.41

## Input Then this variant: PQVRDWSHYFHIIEDLRAQIFANT [K11H]
## Output 2.25

## Input Now consider PQVRDWSHYFKIIEDLRTQIFANT [A18T] .
## Output 1.48

## Input Also need PTVRDWSHYFKIIEDLRAQIFANT [Q2T] , thanks.
## Output 2.31
